Reported values of Percent Control for individual entries
- System: PIM3
- Condition set: Compound Concentration (nM):1000;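 also: KINOMEscan scanMAX binding as percent activity remaining versus control; lower means stronger binding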
Experimental endpoint: Percent Control (%)

{"columns": ["Molecule", "Measurement target", "Experimental endpoint", "Data value"],
 "data": [
  ["COc1cc(C)c(N(C)C(=O)CN(C)C)cc1Nc1nc(Nc2cccc(F)c2C(N)=O)c2cc[nH]c2n1 [GSK2219385]", "PIM3", "Percent Control", 86],
  ["COc1cc2ncn(-c3cc(O[C@H](C)c4ccccc4Cl)c(C(N)=O)s3)c2cc1OC [GSK237701A]", "PIM3", "Percent Control", 66],
  ["CC1=C(C(=O)Nc2ccc3[nH]ncc3c2)C(c2ccc(Cl)c(Cl)c2)CC(=O)N1 (centres unmarked) [GSK299115A]", "PIM3", "Percent Control", 91],
  ["CN(C)CCNC(=O)Nc1ccc(N(C)c2ccnc(Nc3ccc(CS(C)(=O)=O)cc3)n2)cc1.Cl [GW830900A]", "PIM3", "Percent Control", 97],
  ["COc1cccc(-n2ncc3c(N/N=C/c4ccncc4)ncnc32)c1 [GW784752X]", "PIM3", "Percent Control", 100],
  ["CCc1ccc(Oc2nccc(-c3c(-c4ccc(F)cc4)ncn3C3CCNCC3)n2)cc1 [SB-242719]", "PIM3", "Percent Control", 100],
  ["NS(=O)(=O)c1ccc(N/N=C2\\C(=O)Nc3ccc(-c4cnco4)cc32)cc1 [GW276655]", "PIM3", "Percent Control", 56],
  ["Cl.c1ccc(Cc2nc3ccc(Nc4ncnc5ccccc45)cc3[nH]2)cc1 [GR269666A]", "PIM3", "Percent Control", 100],
  ["O=C(Nc1n[nH]c2nc(-c3ccc(O)cc3)c(Br)cc12)C1CC1 [SB-725317]", "PIM3", "Percent Control", 9.3],
  ["C/C(Nc1ccc(S(N)(=O)=O)cc1)=C1/C(=O)Nc2ccccc21 [GW335962X]", "PIM3", "Percent Control", 89],
  ["CCS(=O)(=O)c1ccc(OC)c(Nc2ncc(-c3cccc(OC)c3)o2)c1 [GW580509X]", "PIM3", "Percent Control", 100],
  ["CC(C)COC(=O)c1ccc2c(c1)/C(=C/Nc1ccc(S(N)(=O)=O)cc1)C(=O)N2 [GW416981X]", "PIM3", "Percent Control", 40],
  ["NS(=O)(=O)c1ccc(N/N=C2\\C(=O)Nc3ccc(C(=O)NCCc4c[nH]cn4)cc32)cc1 [GW300660X]", "PIM3", "Percent Control", 32],
  ["COc1cc(/C=N/Nc2ncnc3[nH]ncc23)ccc1O [GW578748X]", "PIM3", "Percent Control", 53],
  ["Nc1ncnc2occ(-c3ccc(NC(=O)Nc4cc(C(F)(F)F)ccc4F)cc3)c12 [GW770249X]", "PIM3", "Percent Control", 100],
  ["CC1=C(C(=O)Nc2ccc3[nH]ncc3c2)C(c2ccc3ccccc3c2)CC(=O)N1 (centres unmarked) [GSK270822A]", "PIM3", "Percent Control", 92],
  ["NS(=O)(=O)c1ccc(N/N=C2\\C(=O)Nc3ccc(Cl)cc32)cc1 [GW280670X]", "PIM3", "Percent Control", 100]
]}

###

- Tested on: PRKX
- Condition set: Compound Concentration (nM):1000

{"columns": ["Compound", "Percent Control, %"],
 "data": [
  ["O=C1Nc2ccc(C(=O)c3ccco3)cc2C1=Cc1cc(Cl)c(O)c(Cl)c1 [GW406108X]", 100],
  ["COc1cc(C)c(N(C)C(=O)CN(C)C)cc1Nc1nc(Nc2cccc(F)c2C(N)=O)c2cc[nH]c2n1", 95],
  ["COc1cc2ncnc(Nc3ccc4c(cnn4Cc4ccccc4)c3)c2cc1OC.Cl [GW282449A]", 100],
  ["Cl.O=C(Nc1ccc(Oc2ccc3[nH]c(NC(=O)c4ccccc4)nc3c2)cc1)Nc1cc(C(F)(F)F)ccc1F [GW709042A]", 100],
  ["COc1ccccc1-c1cc(/C=C2\\C(=O)Nc3ncc(Br)cc32)cc(Br)c1O [GW442130X]", 100],
  ["COc1cccc(-n2ncc3c(N/N=C/c4ccncc4)ncnc32)c1 [GW784752X]", 38]
]}
